All figures here come from ChEMBL document CHEMBL3739352.

system: Salmonella typhimurium; assay: Mutagenicity in Salmonella typhimurium TA98 assessed as number of revertants at 20 ug/plate by Ames test (reference value: 23 +/- 3); assay type: toxicity, organism-based; conditions: salmonella enterica subsp. enterica serovar typhimurium
Recorded measurements of Activity, one per entry
Give a plain numeric answer without units written out.

Worked examples follow.
CC(CO)NC(=O)/C=C/c1ccccc1 (racemic) :: 20
CCC(O)CNC(=O)/C=C/c1ccccc1 (racemic) :: 20
CC(O)CNC(=O)/C=C/c1ccccc1 (racemic) :: 22
CC(C)C(CO)NC(=O)/C=C/c1ccccc1 (racemic) :: 19
O=C(/C=C/c1ccccc1)N1CCC(O)CC1 :: 19
CCC(CO)NC(=O)/C=C/c1ccccc1 (racemic) :: 24

In the following, a different compound is considered.
q: Quick check: Activity of O=C(/C=C/c1ccccc1)N[C@H]1CCCC[C@@H]1O (racemic) ?
a: 21
